Sourced from paper PMC5807214

Target: MexG (Pseudomonas aeruginosa)
Test: intrinsic tryptophan fluorescence quenching
pKd: −log10 of the molar value.
assay-endpoint: pKd

Entry Cn1c2cccc(=O)c-2nc2ccccc21 under MexG (Pseudomonas aeruginosa) had pKd of ~6.22

---

Molecular target: MexG-HAWA (Pseudomonas aeruginosa, UniProt Q9HWH6, H95A/W98A)
Assay: intrinsic tryptophan fluorescence quenching
assay-endpoint: Kd

Lookup result for Cn1c2cccc(=O)c-2nc2ccccc21 [pyocyanin] ; measured Kd: ~7 µM
